- Test system: isolated mouse liver mitochondria, Ca2+ swelling, A540 20 min
- measurement-description: mitochondrial swelling inhibition, absorbance readout – dry powder samples, uHTS hits, dose response (AID 743359)
Activity calls are given as the source filed them.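 The calls were made as follows: active = compounds whose half-maximal inhibitory concentration IC50 is 20 µM or lower; inactive = the rest.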
Write down one outcome, taken from active, inactive

Short answer needed: outcome of this test for CN1CCN(Cc2ccc(NS(=O)(=O)c3ccc(F)c(Cl)c3)cc2)CC1 ?
inactive

Dear all, I need the recorded test outcome for COc1ccc(Cl)cc1C(=O)Nc1cccc(CN2CCN(C(=O)OC(C)(C)C)CC2)c1 , thank you.
inactive

# outcome recorded in this test, key = COc1ccc(Cl)cc1C(=O)Nc1ccc(CCN2CCNCC2)cc1
active

What was the test verdict on CCCc1cc(C(=O)Nc2c(F)cc(F)cc2Br)no1 ?
active

Could you kindly confirm the outcome this assay logged for COc1ccccc1C(=O)Nc1ccc(CN2CCCCC2)cc1 ?
inactive

Tell me the recorded outcome of this test for Cc1cc(NC(=O)c2cc(-c3ccc(F)cc3)on2)no1 .
inactive

Outcome? COc1c(Cl)cccc1NC(=O)c1cc(-c2cccc(O)c2)on1
inactive

Identify the outcome logged in this assay for the compound shown: CN1CCN(Cc2ccc(NS(=O)(=O)c3cccc(Cl)c3)cc2)CC1
inactive

Each compound tested received a call. Report the one for CCN(CC)c1ccc(NC(=O)c2ccc(OC)c(Cl)c2)cc1 .
inactive

Identify the outcome logged in this assay for the compound shown: CN1CCN(CCc2ccc(NS(=O)(=O)c3cc(Cl)cc(Cl)c3)cc2)CC1
inactive

Answer briefly: the call reported for COc1ccc(Cl)c(C(=O)Nc2ccc(CCN3CCCCC3)cc2)c1 in this assay.
inactive

Outcome? CN1CCN(c2ccc(NS(=O)(=O)c3cccc(Cl)c3)cc2)CC1
inactive

Can you look up the reported call for COc1ccc(Cl)cc1C(=O)Nc1ccc(CN2CCNCC2)cc1 for me?
active

Assay outcome for O=C(Nc1cc(Cl)cc(Cl)c1)c1cc(-c2cccc(O)c2)on1 : what was it?
active

What is the recorded call for this compound in the test? COc1ccc(NC(=O)c2cc(-c3cccc(O)c3)on2)cc1Cl
active

Hi team, can someone confirm the assay call for O=C(Nc1ccc(CN2CCCCC2)cc1)c1cc(Cl)cc(OCc2ccccc2)c1 ?
active

Test call for this compound, please: COc1ccc(Cl)cc1C(=O)Nc1ccc(CCN2CCN(C)CC2)cc1
active

Called result for COc1ccc(Cl)cc1C(=O)Nc1ccc(CN2CCN(C)CC2)cc1
active

So what was the verdict on O=C(Nc1ccc(CN2CCCCC2)cc1)c1cccc(Cl)c1 in this test?
active

Test call, this compound: COc1ccc(Cl)c(C(=O)Nc2ccc(CCN3CCOCC3)cc2)c1
inactive

Entry COc1ccc(Cl)c(C(=O)Nc2ccc(CN3CCN(C)CC3)cc2)c1 : call = ?
inactive

How was COc1ccc(Cl)c(C(=O)Nc2ccc(CCN3CCN(C(=O)OC(C)(C)C)CC3)cc2)c1 classified in this test?
inactive

State the result this test recorded for O=C(Nc1cccc(Cl)c1)c1cc(-c2ccccc2)on1 .
inactive

I would be grateful if you could indicate the recorded call for CN1CCN(Cc2ccc(NC(=O)c3cccc(OCc4ccccc4)c3)cc2)CC1 .
active

Outcome logged for O=C(Nc1cc(Cl)ccc1Cl)c1cc(-c2cccc(O)c2)on1 in this assay:
active

Call for entry C[C@@H]1CCC[C@H](C)N1CCCC(=O)c1ccc(Br)cc1 :
inactive

Tell me the recorded outcome of this test for O=C(Nc1ccc(Cl)cc1)c1cc(-c2ccccc2)on1 .
inactive

Called result for COc1ccccc1C(=O)Nc1ccc(C(=O)N2CCCCC2)cc1
inactive
